Exercise: for every item that follows, state its recorded GI50.
tested on: 786-0; experiment: NCI tumour cell line growth inhibition, 48 h
Calls of active or inactive are those of the source. No stated cut-off is given here; in the data, active = GI50 up to about 1.1 µM and inactive = higher.

Answer for every listed entry: what is its GI50? The entries follow.
1. CN(C)C(=S)/N=c1\ssc(=S)n1C1CCCCC1
2. CC(=O)C1C(=O)C(=O)N(c2cccc(C)c2C)C1=O (stereo unspecified)
3. NC(CCc1nc(-c2ccccc2)cs1)C(=O)O (stereo unspecified)
4. S=c1[nH]c2c(Cl)c(Cl)c(Cl)c(Cl)c2[nH]1
5. CC/C(C)=C1\CCC(CN(C)C)C1=O (stereo unspecified)
6. COC1=CC(=O)[C@H]2[C@H](C)C(c3ccccc3)[C@@]2(C)C1=O (stereo partly specified)

1. 17.1 µM (inactive)
2. > 100 µM (inactive)
3. 81.7 µM (inactive)
4. 26.2 µM (inactive)
5. 15.8 µM (inactive)
6. > 100 µM (inactive)

====

test system: U-251; experiment: NCI tumour cell line growth inhibition, 48 h
Calls of active or inactive are those of the source. No stated cut-off is given here; in the data, active = GI50 up to about 1.1 µM and inactive = higher.
Exercise: for every item that follows, state its recorded GI50.

Some molecules with known GI50 results, for comparison:
• COc1ccc(CN2C(=O)[C@@H]3Cc4c(OC)c(C)c(OC)c(OC)c4[C@H](/C2=C\c2cc(OC)c(OC)c(C)c2OC)N3C(=O)OC(C)C)cc1 = > 100 µM (inactive)
• COC(=O)c1ccc(COC(=O)N2C=CCC2C(=O)O)cc1 (stereo not drawn) = > 100 µM (inactive)
• C[C@@H](c1ccccc1)N1CN(C(=O)OCc2ccccc2)C(CO)C1=O (stereo partly drawn) = > 100 µM (inactive)

Answer for every listed entry: what is its GI50? The entries follow.
1. OCCOCn1nncc1Cn1ncc2c(SCc3ccccc3)ncnc21
2. N=C/N=C/C(=S)O[C@@H]1C(=O)N2CCC[C@@]23CCCC[C@@H]13

1. > 100 µM (inactive)
2. > 12.5 µM (inactive)

Answer for every listed entry: what is its GI50? The entries follow.
1. N#CC(C#N)=C1NC(=O)C(c2ccccc2)C(=O)N1 (stereo not drawn)
2. COc1ccc(-c2cc3cc(Cl)cc(Cl)c3oc2=O)cc1OC
3. Cc1ccc(N2C(=O)C3CSCN3C2=O)cc1 (stereo not drawn)
4. COc1ccc(-n2sc3ncccc3c2=O)cc1
5. CC[C@@H]1OC2(C)CC(S(=O)(=O)c3ccccc3O)CC1O2 (stereo partly drawn)
6. CCC1(c2ccc(N3C(=O)c4ccccc4C3=O)cc2)CCC(=O)NC1=O (stereo not drawn)
7. Cc1ccc(S(=O)(=O)NC2C(=O)c3ccccc3C(=O)C2n2ccnc2)cc1 (stereo not drawn)

1. > 100 µM (inactive)
2. 37.2 µM (inactive)
3. > 100 µM (inactive)
4. 23.1 µM (inactive)
5. > 100 µM (inactive)
6. > 10 µM (inactive)
7. > 100 µM (inactive)

Return reported GI50; argument: NC(CCc1nc(-c2ccccc2)cs1)C(=O)O (stereo not drawn)
> 100 µM (inactive)

====

tested on: NCI-H226; experiment: NCI tumour cell line growth inhibition, 48 h
Active and inactive are the calls of the source. Rule as the data show it: active = GI50 up to about 1.1 µM and inactive = higher.
Observed Property: GI50

Some compounds with known GI50 results, for comparison:
* CCc1cccc(C(C)C)c1NC(=O)C(=O)C(C(=O)C(=O)OC)c1nc2ccccc2nc1O (stereo not given) | > 100 µM (inactive)
* O=C(CNc1nccs1)Nn1cnc2ccc(S(=O)(=O)Nc3nccs3)cc2c1=O | > 100 µM (inactive)
* COc1ccc(OC)c2c(=O)c3ccccc3[nH]c12 | 66.5 µM (inactive)

Answer for every listed entry: what is its GI50? The entries follow.
1. CCCCCCC(N)(CCCCCC)C(=O)Nn1c(C)ccc1C
2. CC(C)CSCC1OC(n2cnc3c(N)nccc32)C(O)C1O (stereo not given)
3. CC1=NN(c2nc(N)nc(-c3ccccc3S(N)(=O)=O)n2)C(C)(C)C1
4. Cc1ccc(Nc2nc3c(s2)C(=O)c2ccccc2C3=O)c(C)c1
5. O=C(C1OC1c1ccc(F)cc1)C12CC3CC(CC(C3)C1)C2 (stereo not given)
6. CCCC(=O)NC1=C(Cl)C(=O)c2ccccc2C1=O
7. COc1ccc(-n2sc3ncccc3c2=O)cc1
8. COc1ccc2c(c1)CCC1C3(CCCC21C)OCCO3 (stereo not given)

1: 43.7 µM (inactive); 2: > 57.1 µM (inactive); 3: 9.2 µM (inactive); 4: 12.1 µM (inactive); 5: 20.2 µM (inactive); 6: 7.78 µM (inactive); 7: 39.4 µM (inactive); 8: 17.4 µM (inactive)

Answer for every listed entry: what is its GI50? The entries follow.
1. COc1cc2c(cc1O)CCN[C@@]21CS[C@H]2c3c(OC(C)=O)c(C)c4c(c3C(COC1=O)N1C2C2c3c(cc(C)c(OC)c3O)CC([C@@H]1O)N2C)OCO4 (stereo not given in full)
2. N#CCCN(CCN(CCN(C(=O)Nc1ccccc1)c1ccccc1)C(=O)Nc1ccccc1)C(=O)Nc1ccccc1
3. NC1=NN(c2ccccc2)C(=O)C1/C(=N\NC(=O)c1cc2ccccc2cc1O)C(=O)Nc1nc([N+](=O)[O-])cs1 (stereo not given)
4. CC1(C)C2CCC1C(=O)C(C=O)C2 (stereo not given)
5. CCN(CC)CC1CCCCN1CC(=O)N1c2ccccc2NC(=O)CC1C (stereo not given)
6. C[C@]12CCC(=O)C=C1CC[C@@H]1[C@@H]2C(=O)C[C@@]2(C)[C@H]1CC[C@]2(O)C(=O)CO [CORTISONE]

["< 0.0001 µM (active)", "> 100 µM (inactive)", "49.1 µM (inactive)", "> 100 µM (inactive)", "> 100 µM (inactive)", "> 100 µM (inactive)"]

Answer for every listed entry: what is its GI50? The entries follow.
1. Cc1cs/c(=N\C(P(=O)(O)O)P(=O)(O)O)n1C
2. Cc1cc2c(cc1Cl)SC(N/N=C(\N)c1ccc(Cl)cc1)=NS2(=O)=O
3. COc1ccccc1NC(=O)CC(=O)n1nc(C)c(/N=N/c2ccccc2Cl)c1C

1: > 100 µM (inactive); 2: > 100 µM (inactive); 3: > 100 µM (inactive)
